Origin of values: patent US8093406B2

Listing of recorded pIC50 by entry.
- TARGET SYSTEM: Human BACE (Homo sapiens, UniProt P56817)
- Construct: Recombinant BACE (extracellular domain, expressed in baculovirus and purified using standard methods); made in house
- Sequence (P56817 46-457 limits assumed): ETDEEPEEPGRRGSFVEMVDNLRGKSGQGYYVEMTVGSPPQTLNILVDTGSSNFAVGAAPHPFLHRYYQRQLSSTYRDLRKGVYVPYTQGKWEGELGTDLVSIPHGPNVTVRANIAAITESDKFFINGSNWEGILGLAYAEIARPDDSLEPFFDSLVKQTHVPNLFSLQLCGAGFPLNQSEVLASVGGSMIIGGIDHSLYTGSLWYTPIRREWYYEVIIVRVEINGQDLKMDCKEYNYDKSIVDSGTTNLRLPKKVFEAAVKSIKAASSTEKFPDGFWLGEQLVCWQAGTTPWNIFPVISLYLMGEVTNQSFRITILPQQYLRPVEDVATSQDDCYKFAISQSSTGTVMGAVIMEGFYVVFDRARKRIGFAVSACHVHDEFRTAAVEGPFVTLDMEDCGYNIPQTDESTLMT
- ASSAY METHOD TEXT: Test 1: Inhibition of Human BACE
- Assay type: biochemical
- REPORTED CONDITIONS: Test 1; recombinant BACE extracellular domain, acetate buffer pH 4.5, 1 hour incubation at room temperature, fluorescence-quenched APP-derived peptide substrate; read-out: Bace IC50
pIC50: −log10 of the molar value. Counter-ions that a name gives are not always drawn.
MEASUREMENT TYPE: pIC50

>  <COMPOUND>
CC(C)(C)NCC(=O)Nc1c(F)cc(C[C@@H]2CS(=O)(=O)C[C@H](NCc3cccc(C(C)(C)C)c3)[C@H]2O)cc1Cl [Example 15]

>  <TARGET SYSTEM>
Human BACE (Homo sapiens, UniProt P56817)

>  <RECORDED MEASUREMENT>
7.30

$$$$
>  <COMPOUND>
CC(C)(C)c1cccc(CN[C@H]2CS(=O)(=O)C[C@@H](Cc3cc(F)c(NCCNC4CC4)c(Cl)c3)[C@@H]2O)c1 [Example 17, hydrochloride]

>  <TARGET SYSTEM>
Human BACE (Homo sapiens, UniProt P56817)

>  <RECORDED MEASUREMENT>
5.75

$$$$
>  <COMPOUND>
CC(C)(C)c1cccc(CN[C@H]2CS(=O)(=O)C[C@@H](Cc3cc(F)c(N)c(N4CCC4=O)c3)[C@@H]2O)c1 (relative stereo) [Example 5]

>  <TARGET SYSTEM>
Human BACE (Homo sapiens, UniProt P56817)

>  <RECORDED MEASUREMENT>
5.33

$$$$
>  <COMPOUND>
CCNCC(=O)Nc1c(F)cc(C[C@@H]2CS(=O)(=O)C[C@H](NCc3cccc(C(C)(C)C)c3)[C@H]2O)cc1CC [Example 8, dihydrochloride]

>  <TARGET SYSTEM>
Human BACE (Homo sapiens, UniProt P56817)

>  <RECORDED MEASUREMENT>
7.38

$$$$
>  <COMPOUND>
CC(C)(C)c1cccc(CN[C@H]2CS(=O)(=O)C[C@@H](Cc3cc(F)c(N)c(N4CCCC4=O)c3)[C@@H]2O)c1 (relative stereo) [Example 4, di-trifluoroacetate]

>  <TARGET SYSTEM>
Human BACE (Homo sapiens, UniProt P56817)

>  <RECORDED MEASUREMENT>
6.49

$$$$
>  <COMPOUND>
COC[C@@H](Oc1cc(C[C@@H]2CSC[C@H](NCc3cccc(C(C)(C)C)c3)[C@H]2O)cc(F)c1N)C(F)(F)F [Example 40, hydrochloride]

>  <TARGET SYSTEM>
Human BACE (Homo sapiens, UniProt P56817)

>  <RECORDED MEASUREMENT>
6.61

$$$$
